Tested on: Escherichia coli TOP10
Assay: shrunken log2 fold change of peptide-encoding DNA abundance (4.5 h post-induction vs induction); higher = less antimicrobial activity (less host growth inhibition)
Details: time post-induction: 4.5 h; library: site-saturation at positions 5, 18, 19, 20
Okay, here is how we bin by shrunken log2 fold change: lower bin: < -0.08; middle bin: ≥ -0.08 and < 0.1; upper bin: ≥ 0.1

Below are worked cases with known answers.
> print(dat)
            sequence.chain       system.under.test  class.name
1  RRIRARPPRLPRPRPRPSYDPRP  Escherichia coli TOP10   lower bin
2  RRIRDRPPRLPRPRPRPKRKPRP  Escherichia coli TOP10  middle bin
3  RRIRKRPPRLPRPRPRPHDWPRP  Escherichia coli TOP10   upper bin

Ask: Note: place this sequence into its band. Item: RRIRRRPPRLPRPRPRPWTTPRP
Result: upper bin

Ask: Note: place this sequence into its band. Item: RRIRWRPPRLPRPRPRPEQDPRP
Result: middle bin

Ask: Note: place this sequence into its band. Item: RRIRHRPPRLPRPRPRPIYWPRP
Result: lower bin

Ask: Note: place this sequence into its band. Item: RRIRTRPPRLPRPRPRPFNLPRP
Result: lower bin

Ask: Note: place this sequence into its band. Item: RRIRFRPPRLPRPRPRPRYSPRP
Result: lower bin

Ask: Note: place this sequence into its band. Item: RRIRCRPPRLPRPRPRPFEQPRP
Result: lower bin

Ask: Note: place this sequence into its band. Item: RRIRLRPPRLPRPRPRPYSKPRP
Result: lower bin

* * *

Tested on: Escherichia coli TOP10
Assay: shrunken log2 fold change of peptide-encoding DNA abundance (4.5 h post-induction vs induction); higher = less antimicrobial activity (less host growth inhibition)
Conditions: time post-induction: 4.5 h; library: site-saturation at positions 5, 18, 19, 20
Observation Type: shrunken log2 fold change
Give only the figure.

# annotated cases, reported shrunken log2 fold change shown
> print(dat)
            sequence.chain  reported.result
1  RRIRPRPPRLPRPRPRPHPRPRP            0.597
2  RRIRMRPPRLPRPRPRPQPDPRP            0.658
3  RRIRNRPPRLPRPRPRPKVSPRP            0.264
4  RRIRVRPPRLPRPRPRPCFNPRP           -0.421
5  RRIRDRPPRLPRPRPRPWMNPRP            -0.15
6  RRIRERPPRLPRPRPRPPEKPRP          -0.0038

For record RRIRPRPPRLPRPRPRPHRAPRP the listed shrunken log2 fold change is 0.402

For record RRIRYRPPRLPRPRPRPNYDPRP the listed shrunken log2 fold change is -0.746

* * *

Test system: Escherichia coli TOP10;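 also: peptides expressed intracellularly from a pBAD plasmid library in pooled LB shake-flask culture, induced with 0.3% L-arabinose, DNA abundance read by NGS, three biological replicates, DESeq2 with apeglm shrinkage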
Assay: shrunken log2 fold change of peptide-encoding DNA abundance (4.5 h post-induction vs induction); higher = less antimicrobial activity (less host growth inhibition)
Conditions: time post-induction: 4.5 h; library: site-saturation at positions 5, 18, 19, 20
Observation Type: shrunken log2 fold change
Give only the figure.

> print(dat)
            sequence.chain  reported.result
1  RRIRDRPPRLPRPRPRPFDPPRP           -0.119

Case RRIRPRPPRLPRPRPRPCDKPRP , Escherichia coli TOP10, shrunken log2 fold change recorded as 0.0695

Case RRIRERPPRLPRPRPRPPDYPRP , Escherichia coli TOP10, shrunken log2 fold change recorded as -0.202
